- System: OVCAR-3 ovarian
- protocol: NCI-60 one-dose screen, 48 h (100 = growth as untreated, 0 = no growth, -100 = all killed)
- test-context: 10 µM
Compounds without any hit were thinned out: in the full panel of roughly 83,000, 20% have a hit.
The following compounds are shown together with reported growth values.
Expressed in %, but write only the number.

Worked examples follow.
CCOC(=O)c1ccc(NC(=S)P(=O)(c2ccccc2)c2ccccc2)cc1 = 92.2
C=CC(=O)OCCCCCCCC = 103
COC(=O)c1ccccc1N(C)C = 106

Request: I would be grateful if you could share the reported growth for Nc1nc(OCc2ccccc2)c2[nH]cnc2n1 .
Result: 109

Request: I would be grateful if you could share the reported growth for CC1CC(O)C2C3(C)CCCC2(COC3=O)C12CCC1(CCOC1=O)O2 (centres undefined) .
Result: 110

Request: I would be grateful if you could share the reported growth for CC(C)COC(=O)COC(=O)OCCOCCOC(=O)OCC(=O)OCC(C)C .
Result: 126

Request: I would be grateful if you could share the reported growth for C=C[Si](OC(C)=O)(OC(C)=O)OC(C)=O .
Result: 108

Request: I would be grateful if you could share the reported growth for CCOC(=O)CCCC(=O)OCC .
Result: 102

Request: I would be grateful if you could share the reported growth for CCc1nn(Cc2ccccc2)c2nc(C)c(CCc3ccccc3)c(Cl)c12 .
Result: 109
